Just for reference, PubChem BioAssay (NCI) is where these values come from.

System: EKVX NSCLC
experiment_summary: NCI tumour cell line growth inhibition, 48 h; in the data active = GI50 below about 0.43 µM; inactive = the rest
API: response.call in yes (active), no (inactive)

stdin: Per the records of this test, what outcome belongs to CCOc1ccc2cc(-c3nn(CC4CCN(C)CC4)c4ncnc(N)c34)ccc2c1 ?
stdout: no

stdin: Can you look up the reported call for COc1ccc2c(c1)[n+](=O)c(/C=C/C(=O)c1cc(OC)c(OC)c(OC)c1)c(C)n2[O-] for me?
stdout: no

stdin: Write down the call the test reported for this molecule. Item: C=C(CN1CCc2ccccc2C1)c1ccc(CCCC(=O)Nc2ccccc2N)cc1
stdout: no

stdin: Would you mind telling me which call this test gave Cc1nc(C(=O)OCc2ccccc2)cc(OCc2ccccc2)c1C ?
stdout: no

stdin: Just curious, what result did COc1ccc(C(=O)Cn2c(C(=O)c3ccc(Cl)cc3)nc(-c3ccccc3)c2-c2ccccc2)cc1 get here?
stdout: no

stdin: Entry CN(C)CCN=c1nc2c(c(N)n1-c1ccccc1)c(=S)n(-c1ccccc1)c(=S)n2-c1ccccc1 : call = ?
stdout: no

stdin: Assay outcome for S=C(Nc1ccc(-c2nc3ccccc3s2)cc1)Nc1ccc(-c2nc3ccccc3s2)cc1 : what was it?
stdout: no

stdin: Hi, sorry to bother you, what did the test record for CCN(CC)CC[n+]1ccc2c(C)c3[nH]c4ccccc4c3c(C)c2c1 ?
stdout: no

stdin: Answer briefly: the call reported for Cc1cc(C)c(-c2c(O)c(Br)c(-c3c(C)cc(C)c(Br)c3C)c(O)c2Br)c(C)c1Br in this assay.
stdout: no

stdin: Please let me know the test result on file for CC(=O)c1nc(-c2ccc(C[C@@H](CNC(=O)CN(C)C)NC(=O)c3ccc(OC(C)C)c(Cl)c3)cc2)cn1C .
stdout: yes

stdin: Check the results log: what was the call for O=C(NCc1cn(Cc2cccc(Oc3ccccc3)c2)nn1)c1cccnc1NCc1ccc(Cl)cc1 ?
stdout: no

---

System: UACC-62 melanoma
experiment_summary: NCI tumour cell line growth inhibition, 48 h
measured_parameter: TGI (µM)
Form entry: value (µM) — number only.

Memo: O=C(O)C(Cc1ccccc1)N1C(=O)/C(=C/C(Cl)=C/c2ccc([N+](=O)[O-])cc2)SC1=S (centres undefined) , reported TGI: 4.85

Looking up Cc1oc(N)c(S(=O)(=O)/C(C#N)=C/c2ccccc2[N+](=O)[O-])c1C , I found its TGI recorded as 46.9

For Cc1cc(NS(=O)(=O)c2ccc(Nc3c4ccccc4nc4c(C(=O)NC(CO)(CO)CO)cccc34)cc2)no1 the compound record lists TGI as 75.1

Briefly, TGI measured for CN(C)Cc1cc(/C=C/C(=O)c2ccc(Br)cc2)cc(CN(C)C)c1O : 39.1

---

System: UACC-257 melanoma
experiment_summary: NCI tumour cell line growth inhibition, 48 h
measured_parameter: log10 TGI (log10 of the value in µM)
Values reflect log10 of reported TGI (µM).

The value of log10 TGI recorded for O=C(CCC(NC(=O)OCc1ccccc1)C(=O)OCc1ccccc1)Nc1cccc(OCc2ccccc2)c1 (stereo not given) when tested on UACC-257 melanoma reads 1.74

Param item: N#C/C(=C/C=C/c1cccc(Cl)c1)S(=O)c1ccccc1 (stereo not given) ; param system: UACC-257 melanoma; output log10 TGI: 0.50

Log: UACC-257 melanoma, compound CCOC(=O)/C=C(/C(=O)OCC)n1cc(C)c(=O)n(Cc2cn(CCCCOC(C)=O)nn2)c1=O , log10 TGI = 1.57

Response field log10 TGI (UACC-257 melanoma) for item Cc1nc(C(=O)OCc2ccccc2)cc(OCc2ccccc2)c1C : 1.58

The observed log10 TGI for COc1ccc(-c2csc3c2[N+]2(C)C=CC=C2C3N2CCCC2)cc1 (stereo not given) when tested with UACC-257 melanoma stands at 1.97

---

System: OVCAR-8 ovarian
experiment_summary: NCI tumour cell line growth inhibition, 48 h; in the data active means GI50 below about 0.43 µM; inactive means the rest
Lab note: assign the record to one of active, inactive

stdin: Entry C/C(=N\NC(=S)N1CCCC1)c1ccccn1 : call = ?
stdout: active

stdin: Status in this test for CC(C)(C)OC(=O)NCCCCCCCCCCCCn1c2c(c3ccccc3c1=O)C(=O)c1ccccc1-2 ?
stdout: inactive

stdin: Kindly provide the recorded test outcome for the following molecule: O=C(NCc1cn(Cc2cccc(Oc3ccccc3)c2)nn1)c1cccnc1NCc1ccc(Cl)cc1
stdout: inactive

stdin: Hello, I am checking results. What call was entered for COc1ccc(C(=O)c2ccccc2)c(O)c1 ?
stdout: inactive

stdin: Dear colleague, could you share the recorded outcome for CCOC(=O)c1sc(NC(=O)COc2ccc(/C=C3\CCc4cc(OC)ccc4C3=O)cc2)nc1C when you have a moment?
stdout: inactive

---

Assign TGI to each entry below.
Test system: BT-549 breast
experiment_summary: NCI tumour cell line growth inhibition, 48 h

Reported BT-549 breast TGI for item COC1OC(C)/C(=N/O)C2OC(C)(C)OC12 (stereo unspecified) was > 100 µM

GET /values?item= Cn1cc(-c2csc(-c3ccc(Cl)cc3)n2)c2cccnc21 &system= BT-549 breast returns TGI: 51.9 µM

Observed TGI, BT-549 breast, COc1ccc(Cn2c(=O)c(OS(=O)(=O)C(F)(F)F)c(C)c3cc4ccccc4cc32)cc1 : > 100 µM

Recorded TGI for CCNc1ccc2c(c1)C(=O)N(OS(C)(=O)=O)C2=O on BT-549 breast was > 100 µM

Field TGI (system: BT-549 breast) for entry COc1ccc(/C=C/C(=O)c2cc(CN(C)C)c(O)c(CN(C)C)c2)cc1 = 72.9 µM

# lookup: CNCC(SC)c1ccc(O)c(O)c1 (stereo unspecified) on BT-549 breast, TGI = 31 µM

GET /values?item= CC1(C)Cc2ccccc2C(C)(Cl)C(=O)N1 (stereo unspecified) &system= BT-549 breast returns TGI: > 10 µM

The compound CC1(C)CC(=O)C2=C(C1)NC(=S)C(C#N)C2c1ccccc1 (stereo unspecified) , tested on BT-549 breast, showed TGI of > 100 µM

The compound O=C(NNC(=O)c1ccncc1)C(=O)Nc1cc(Cl)c(Cl)cc1Cl , when measured on BT-549 breast, yielded TGI of > 100 µM

The compound C/C(=N\Nc1nc2cc(F)ccc2s1)c1ccccn1 , tested on BT-549 breast, showed TGI of 5.84 µM

Query COC(=O)c1c(C(=O)O)c(-c2ccccc2)c(-c2ccccc2)c(-c2ccccc2)c1-c1ccccc1 on BT-549 breast; TGI returned: > 100 µM

---

Test system: TK-10 renal
experiment_summary: NCI tumour cell line growth inhibition, 48 h
measured_parameter: TGI

In plain terms, COc1ccc(C(=O)Cn2c(C(=O)c3ccc(Cl)cc3)nc(-c3ccccc3)c2-c2ccccc2)cc1 has a documented TGI of > 100 µM

Measured TGI of S=C(Nc1ccc(-c2nc3ccccc3s2)cc1)Nc1ccc(-c2nc3ccccc3s2)cc1 : 63.2 µM

// sample O=C(NCCCN1CCN(CCCNC(=O)Nc2cc(Cl)ccc2Cl)CC1)Nc1cc(Cl)ccc1Cl , its TGI was > 100 µM

// recorded TGI for O=C(CC1(O)CCCCC1)OC1CCCC1 : > 100 µM

---

For each record, write down the corresponding TGI.
System: HCT-15 colon
experiment_summary: NCI tumour cell line growth inhibition, 48 h
Where a SMILES comes first, the peptide text is derived from it. Bridges are numbered along the chain shown (N, C = ends).

response.value for N#Cc1nc(CN2C(=O)c3ccccc3C2=O)oc1N (field: TGI) = > 100 µM

The compound CCOC(=O)/C=C/c1ccc([N+](=O)[O-])o1 showed TGI equal to 7.53 µM

TGI measured on COc1ccc(Cn2c(=O)c(OS(=O)(=O)C(F)(F)F)c(C)c3cc4ccccc4cc32)cc1 = > 100 µM

Note to self: TGI recorded for CCOC(=O)C(Cc1cc(OC)c(CC(C(=O)OCC)C(=O)OCC)cc1OC)C(=O)OCC was > 100 µM

// field: TGI; key: CCOC(=O)c1c(SC(=O)c2ccc(Cl)cc2)n(-c2ccccc2)c(=S)n(-c2ccccc2)c1=O ; value = > 100 µM

Reported TGI ( COC(=O)C1CCC(=O)NCCCCC(NC(=O)C(N)CC(=O)O)C(=O)N1 (stereo not drawn) (H-Asp-Lys-Glu-OMe; lactam 2-3; configuration not given here) ) = > 100 µM

---

Tested on: LOX IMVI melanoma
experiment_summary: NCI tumour cell line growth inhibition, 48 h
measured_parameter: TGI

Field TGI (entry CCNC(=O)COc1ccc(Cl)c(C)c1 ) reads > 100 µM

Field TGI (entry CC(C)(O)c1cc(Nc2cc(Oc3cn(C4CC4)nc3C3CCOCC3)ccn2)ccn1 ) reads > 100 µM

Record summary for COc1ccc(OCC(=O)O)c2c1CCC(C)C2=O (configuration not stated) : reported TGI = > 100 µM

// field: TGI; key: C=C(c1ccccc1)c1cc2c(=O)[nH]ccc2n1C ; value = > 100 µM

Record C=C1c2nc3ccccc3n2C=C(c2ccccc2)N1c1ccc(C)cc1 , field TGI: > 100 µM

So, O=c1[nH]c(=S)[nH]c2c1CCCN2 ? Its TGI was > 100 µM

Input CC(NC1CCCC[C@@H]1O)c1ccccc1 (some centres not stated) . Output TGI: > 100 µM

Briefly, TGI measured for CN(C)C(=S)/N=c1\ssc(=Nc2ccccc2)n1-c1ccccc1 : 87 µM

The molecule identified as O=C(Oc1cncc(Cl)c1)c1cc2ccccc2sc1=O registered its TGI at > 100 µM

So, CC(=O)c1c(-c2ccco2)c(C#N)c(=S)n(C2OC(CO)C(O)C(O)C2O)c1C (configuration not stated) ? Its TGI was > 100 µM

Short answer for COC(=O)CCC(NC(=S)N/N=C(\C)c1cccs1)C(=O)OC (configuration not stated) : TGI was > 100 µM

For reference, reported TGI for O=S1(=O)CCC2=CC(C(F)(F)F)=CC(C(F)(F)F)=CN21 stands at 4.95 µM

// recorded TGI for Nc1ccccc1SC(/C=C/NNC1=NC(c2ccccc2)C(c2ccccc2)=NN1)c1ccccc1 (configuration not stated) : 27.1 µM

Lookup result for Cc1cccc(NC(=S)Nc2cccc(Cl)c2)n1 ; measured TGI: > 100 µM

Recorded TGI (molecule C[C@H](CCc1nc(C#N)c(N)o1)[C@H]1CC[C@H]2[C@@H]3CCC4C[C@@H](O)CC[C@]4(C)[C@H]3C[C@@H](O)[C@]12C (some centres not stated) ): 23.8 µM

For record CC(C)(C)c1cc(C(C)(C)C)c(SC2OC(CO)C(O)C(O)C2O)c(O)c1O (configuration not stated) the listed TGI is 22.9 µM

For COc1ccc(/C=C/C(=O)c2cc(CN(C)C)c(O)c(CN(C)C)c2)cc1 the molecule record lists TGI as 31.9 µM

Memo: CCNc1ccc2c(c1)C(=O)N(OS(C)(=O)=O)C2=O , reported TGI: > 100 µM

Reported TGI for S=C(Nc1ccc(-c2nc3ccccc3s2)cc1)Nc1ccc(-c2nc3ccccc3s2)cc1 was 30.5 µM

Reported TGI of C[C@]12CC[C@H](OC(=O)Nc3ccccc3)CC1=CC[C@@H]1C2CC[C@]2(C)/C(=N/OC(=O)Nc3ccccc3)CCC12 (some centres not stated) : > 100 µM

Recorded TGI (molecule O=S1(=O)N=C(SCc2c[nH]c3ccccc23)N(c2ccccc2)c2ccncc21 ): > 100 µM

TGI measured on CSC(=S)NCc1cn(C)c2ccccc12 = 94.1 µM
